- ASSAY PROCEDURE: NCI Yeast Anticancer Drug Screen. Data for the bub3 strain (AID 167)
- CONDITIONS USED: S. cerevisiae bub3 mutant strain, at 50.0 µM (retest, dose inferred, filed as 5.0), active compounds read high
Compounds without any hit were thinned out: in the full panel of roughly 79,000, 15% have a hit.
Quick rule: growth inhibition of at least 60% means Y, below that means N.

Please check the record O=C(OCC1OC(OCC(OC(=O)c2ccccc2)C(OC(=O)c2ccccc2)C(OC(=O)c2ccccc2)c2cnn(-c3ccccc3)n2)C(OC(=O)c2ccccc2)C(OC(=O)c2ccccc2)C1OC(=O)c1ccccc1)c1ccccc1 (stereo not given) and state if its growth inhibition is at or above 60%.
N

Does the reported growth inhibition for Oc1c(Br)cc(Br)cc1C=Nc1ccc(Br)cc1 fall at or above the 60% mark?
Y

API: above_or_equal(metric=growth inhibition, cutoff=60%) for item OC1(c2ccc(Br)cc2)C2CCCCC2C2CCCCC21 (stereo not given)
Y

Determine whether measured growth inhibition meets or exceeds 60% for CC(O)(c1ccccc1)c1ccccc1S(=O)(=O)Nc1ccccc1 (stereo not given)
N

* * *

- ASSAY PROCEDURE: NCI Yeast Anticancer Drug Screen. Data for the bub3 strain (AID 167)
- CONDITIONS USED: S. cerevisiae bub3 mutant strain, at 50.0 µM
The panel holds about 79,000 compounds, 15% with a hit somewhere; the sample as a whole holds those more often. Calls of active or inactive are those of the source. Rule as the data show it: active = growth inhibition above about 70%; inactive = the rest.
Respond with a class label; see active, inactive

Hi, do you know how O=NN(CCCl)C(=O)Nc1cc(=O)[nH]c(SCc2ccccc2)n1 came out in this test?
inactive

Please share the test call associated with CC1(C)CCC2(C(=O)O)CCC3(C)C(=CCC4C5(C)CC(O)C(O)C(C)(C(=O)O)C5CCC43C)C2C1 (stereo unspecified) .
active

Each compound tested received a call. Report the one for CC(/C=C/c1cccc(C)c1)=N\NC(N)=S .
active

Hello, I am checking results. What call was entered for Cc1cc(O)c(O)cc1C/C=C/c1ccccc1 ?
inactive

Answer briefly: the call reported for CCS(=O)(=O)C(C(O)C(O)C(O)C(O)CO)S(=O)(=O)CC (stereo unspecified) in this assay.
inactive

Answer briefly: the call reported for COc1ccc(-c2cn(-c3ccccc3)c3ncnc(N)c23)cc1 in this assay.
inactive

Status in this test for OCC1(O)OCC(O)C(O)C1O (stereo unspecified) ?
active

Can you look up the reported call for CCN(CC)C(=O)CCCC1CCCCC1 for me?
inactive

// return assay outcome for Cc1cccc2c1NC(c1c(C)[nH]c3ccccc13)C2 (stereo unspecified)
inactive

Recorded test call requested for CCc1ccc(/C=C/C(=O)C2CN(CC)CCC2(O)/C=C/c2ccc(CC)cc2)cc1 (stereo unspecified)
active

Test call for this compound, please: O=C1c2cccc(NCCNCCO)c2C(=O)c2cccc(NCCNCCO)c21
inactive

* * *

- ASSAY PROCEDURE: NCI Yeast Anticancer Drug Screen. Data for the cln2 rad14 strain (AID 165);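 further: 0% = growth equal to vehicle treated cultures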
- CONDITIONS USED: S. cerevisiae cln2 rad14 strain, at 5.0 µM (retest, dose inferred, filed as 0.5), active compounds read high
This is part of a sample that, as a whole, favours compounds with a hit. Of some 79,000 tested, about 15% had one in any assay.
REPORTED PROPERTY: growth inhibition (%)
Give just the numeric value; % need not be written.

growth inhibition measured on CN(/N=C/c1ccc(C(=O)O)cc1)C1=NCCCCN1 = 3

// Cc1cccc(CC(C)(C)C)c1NC(=O)C(=O)C(C(=O)c1ccc2ccccc2c1)C1OC(=O)c2ccccc21 (stereo not drawn) : growth inhibition value = -1

Recorded growth inhibition (molecule CCCCCCCCCCCCCCCCNC(=O)/C(=C\c1ccccc1O)NC(=O)c1ccccc1 ): 33

Kindly note the recorded growth inhibition for O=S(=O)(OI(OI(OS(=O)(=O)C(F)(F)F)c1ccccc1)c1ccccc1)C(F)(F)F , which is 27

The molecule listed as Oc1ccc(C2Oc3ccccc3C=C2c2ccccc2)cc1 (stereo not drawn) has a reported growth inhibition of 15

Lookup result for Cc1ccc(C(=O)CC(O)(C(F)(F)F)C(F)(F)F)cc1[N+](=O)[O-] ; measured growth inhibition: 25

Recorded growth inhibition (molecule CC(C)N=C(NC(C)C)SCCCCCCSC(=NC(C)C)NC(C)C ): -6

// recorded growth inhibition for CSC(=S)NN=C1CCCC1 : 49

Notebook: CCCC1CCCC1(CC(=O)c1ccccc1)C(=O)O (stereo not drawn) , growth inhibition read as 24

# molecule CC12CCC(O)CC1CCC1C2CCC2(C)C(NC(=O)N(CCCl)N=O)CCC12 (stereo not drawn) ; its growth inhibition = -1

Entry O=C(NCCCN1CCN(CCCNC(=O)c2cc(-c3ccccc3)nc3ccccc23)CC1)c1cc(-c2ccccc2)nc2ccccc12 , growth inhibition reported as 29

Per the records, this molecule ( NCCc1ccc2oc3cc(=O)c4ccccc4c-3nc2c1 ) has growth inhibition equal to 1

So for COC(=O)c1ccc(NCc2c(O)ccc(O)c2Br)cc1Cl , the logged growth inhibition turned out to be 25

molecule CCNc1ccccc1C , growth inhibition observed: 2

Sample CC1=C/C(=C(/c2ccc(O)c(C)c2)c2ccccc2C(=O)O)C=CC1=O ; growth inhibition observed: -28

Recorded growth inhibition (molecule O=C1C=CC(=O)N1c1ccc(Cl)cc1 ): 54

Looking up Cc1cnc2cccc(Cl)c2c1Cl , I found its growth inhibition recorded as -42

In plain terms, C#CC(CC)(CC)NC(=O)NC(C)(C)C has a documented growth inhibition of 2

growth inhibition reading for CCCN(CCC)Cc1cc2c(cc1O)CC[C@@H]1[C@@H]2CC[C@]2(C)C(=O)CC[C@@H]12 : 52

Measured growth inhibition of CC(=O)Nc1ccc(N=Cc2cc(Cl)cc(Cl)c2O)cc1 : 54

// field: growth inhibition; key: CN1CCN(CC(=O)c2c(-c3ccccc3)[nH]c3ccccc23)CC1 ; value = 50

response.value for O=C(/C=C/C(=O)N1CCCC1)N1CCCC1 (field: growth inhibition) = -4

Just so you know, measured growth inhibition for O=C1C2=C(c3ccccc31)C(c1ccccc1Cl)NC(=S)N2 (stereo not drawn) came out at 20
